- experimentalProtocol: Drug uptake in 7 months-old Lister Hooded rat assessed as corrected brain concentration at 3 mg/kg, po after 1 hr treatment
- testConditions: in vivo
In this section, each of the compounds is paired with its reported concentration at 1 h.
measureName: concentration at 1 h (nM)

[[record]]
compound = "Br.COc1ccc2c3c1O[C@H]1C[C@@H](O)C=C[C@@]31CCN(C)C2 [GALANTAMINE HYDROBROMIDE]"
unitstring = "nM"
observedresult = 730

[[record]]
compound = "Cl.Nc1c2c(nc3ccccc13)CCCC2 [TACRINE HYDROCHLORIDE]"
unitstring = "nM"
observedresult = 1240


---

Overview of recorded Tmax for various compounds
- experimentalProtocol: in vivo
- testConditions: Lister Hooded, rat, po, 3 mg/kg
measureName: Tmax

[[record]]
compound = "COc1cc2c(cc1OC)C(=O)C(CC1CCN(Cc3ccccc3)CC1)C2.Cl (stereo not drawn) [DONEPEZIL HYDROCHLORIDE]"
observedresult = "60 min"

[[record]]
compound = "Cl.Nc1c2c(nc3ccccc13)CCCC2 [TACRINE HYDROCHLORIDE]"
observedresult = "30 min"

[[record]]
compound = "Br.COc1ccc2c3c1O[C@H]1C[C@@H](O)C=C[C@@]31CCN(C)C2 [GALANTAMINE HYDROBROMIDE]"
observedresult = "30 min"

